// data source = ChEMBL document CHEMBL1821631

Target: CDGSH iron-sulfur domain-containing protein 1 (Homo sapiens, UniProt Q9NZ45)
Sequence (Q9NZ45 whole entry, the tested form may be a part): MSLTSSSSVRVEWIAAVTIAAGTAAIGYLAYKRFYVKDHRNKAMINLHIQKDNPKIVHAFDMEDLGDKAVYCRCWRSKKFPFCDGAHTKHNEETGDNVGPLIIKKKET
Assay: Displacement of [3H]-rosiglitazone from human recombinant C-terminal His-tagged cytosolic domain of mitoNEET (32-108) by scintillation proximity assay
pIC50: −log10 of the molar value.
MEASURED ATTRIBUTE: pIC50

Look over these answered cases.
- COMPOUND: "O=C1NC(=O)/C(=C/c2ccc3nccnc3c2)S1"
  REPORTED: 5.49
- COMPOUND: "O=C1NC(=O)C(Cc2ccc3c(c2)OC(F)(F)O3)S1 (configuration not stated)"
  REPORTED: 5.28
- COMPOUND: "O=C(/C=C1/SC(=O)NC1=O)Nc1cccc(O)c1"
  REPORTED: 4.86
- COMPOUND: "Cc1cc(CC2SC(=O)NC2=O)cc(C)c1O (configuration not stated)"
  REPORTED: 5.02
- COMPOUND: "O=C1NC(=O)/C(=C\\c2cc(Br)c(O)cc2Br)S1"
  REPORTED: 5.53
- COMPOUND: "COc1cc(/C=C2/SC(=S)NC2=O)c(OC)cc1O"
  REPORTED: 5.35
- COMPOUND: "O=C1NC(=O)C(Cc2ccc(O)cc2)S1 (configuration not stated) [GLITAZONE]"
  REPORTED: 4.85

A. O=S(=O)(O)Oc1cc(O)cc(/C=C/c2ccc(O)cc2)c1
B. Cc1cc(C)cc(CC2SC(=O)NC2=O)c1 (configuration not stated)
C. CC(C)(C)c1cc(CC2SC(=O)N=C2O)cc(C(C)(C)C)c1O (configuration not stated)
D. COc1ccccc1/C=C1\SC(=O)N(CCN)C1=O
E. COc1cc(/C=C2\SC(=S)NC2=O)ccc1O
Q: hey, can you rank those compounds up there by pIC50? biggest number first please A ranking is expressed here by listing the labels in the requested order.
Ans: E, A, C, B, D
